Entries annotated with measured IC50
target: Human mGluR5 (Homo sapiens, UniProt P41594); assay: Fluorescence-based Ca2+ mobilization assay; settings: HEK293 cell line permanently overexpressing mGluR5, Ca2+ level change induced by L-glutamate at EC80 concentration, FLIPR Tetra
Sequence (P41594 21-1212): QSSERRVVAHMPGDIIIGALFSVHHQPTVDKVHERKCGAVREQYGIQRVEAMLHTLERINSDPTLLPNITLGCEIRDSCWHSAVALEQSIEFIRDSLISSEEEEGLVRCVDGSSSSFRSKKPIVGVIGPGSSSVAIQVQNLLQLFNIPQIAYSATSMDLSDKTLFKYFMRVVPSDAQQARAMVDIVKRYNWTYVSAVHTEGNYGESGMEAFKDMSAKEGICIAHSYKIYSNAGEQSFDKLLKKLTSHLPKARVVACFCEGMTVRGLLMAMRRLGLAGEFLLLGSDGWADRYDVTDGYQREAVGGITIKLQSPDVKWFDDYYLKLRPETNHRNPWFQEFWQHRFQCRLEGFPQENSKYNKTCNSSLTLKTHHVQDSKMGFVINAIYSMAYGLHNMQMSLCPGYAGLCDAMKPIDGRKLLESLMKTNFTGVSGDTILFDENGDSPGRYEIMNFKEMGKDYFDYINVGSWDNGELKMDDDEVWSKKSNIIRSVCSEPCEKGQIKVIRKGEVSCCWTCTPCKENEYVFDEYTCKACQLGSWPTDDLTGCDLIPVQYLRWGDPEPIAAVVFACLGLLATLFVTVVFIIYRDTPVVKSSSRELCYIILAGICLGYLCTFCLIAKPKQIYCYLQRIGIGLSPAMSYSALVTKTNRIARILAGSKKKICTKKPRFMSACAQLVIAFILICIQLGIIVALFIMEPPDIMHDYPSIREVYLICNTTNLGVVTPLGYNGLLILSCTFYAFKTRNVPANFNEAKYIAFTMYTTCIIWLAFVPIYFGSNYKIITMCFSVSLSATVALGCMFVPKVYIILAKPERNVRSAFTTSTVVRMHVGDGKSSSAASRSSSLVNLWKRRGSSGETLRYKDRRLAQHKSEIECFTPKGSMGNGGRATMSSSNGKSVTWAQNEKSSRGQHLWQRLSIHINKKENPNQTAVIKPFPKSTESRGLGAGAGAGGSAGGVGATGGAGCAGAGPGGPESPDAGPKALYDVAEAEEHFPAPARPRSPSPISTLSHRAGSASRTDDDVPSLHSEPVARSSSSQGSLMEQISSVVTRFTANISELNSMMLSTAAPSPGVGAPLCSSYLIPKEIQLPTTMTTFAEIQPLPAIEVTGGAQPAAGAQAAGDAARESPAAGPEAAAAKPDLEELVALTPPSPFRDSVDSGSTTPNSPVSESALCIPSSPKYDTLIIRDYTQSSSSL

O=c1cc(-c2nnc(C(F)F)o2)ccn1CC#Cc1cccc(C(F)F)c1 = 500 to 1000 nM

Entry O=c1cc(-c2nnc(C(F)F)o2)ccn1CC#Cc1cccc(OC(F)(F)F)c1 has what IC50?
1000 to 2000 nM

---

Entries annotated with measured pIC50
molecular target: Human mGluR5 (Homo sapiens, UniProt P41594); construct: expressed in transfected cells; host or cells: HEK293; assay: Fluorescence-based Ca2+ mobilization assay; details: HEK293 cell line permanently overexpressing mGluR5, Ca2+ level change induced by L-glutamate at EC80 concentration, FLIPR Tetra
pIC50: −log10 of the molar value.

Completed entries (count: 4):
CCC(C#Cc1cccc(Cl)c1)Oc1cc(-c2nnc(C(F)F)o2)ccn1 (stereo not shown) = 5.70 to 6.00
Cc1cccc(C#CCn2ccc(-c3nnc(C(F)F)o3)cc2=O)c1 = 5.70 to 6.00
O=c1cc(-c2nnc(C(F)F)o2)ccn1CC#Cc1cccc(OC(F)F)c1 = 5.70 to 6.00
O=c1cc(-c2nnc(C(F)F)o2)ccn1CC#Cc1cccc(Cl)c1 = 6.00 to 6.30

Entry O=c1cc(-c2nnc(C(F)(F)F)o2)ccn1CC#Cc1cccc(Cl)c1 has what pIC50?
5.70 to 6.00

Entry Cc1ccc(C#CCn2ccc(-c3nnc(C(F)F)o3)cc2=O)cc1 has what pIC50?
5.70 to 6.00

Entry O=c1cc(-c2nnc(C(F)F)o2)c(Br)cn1CC#Cc1cccc(Cl)c1 has what pIC50?
6.00 to 6.30
